# System: primary rat microglia
# Run description: Cell toxicity (dead cells, size <150 μm2) in coated fibrin (cFib) assay;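 note: share of dead cells sized under 150 µm2 at 10 µM in fibrin-stimulated microglia HTS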
# Assay conditions: primary microglia HTS, fibrin stimulation, cell size <150 μm2 as marker of toxicity
Where a name gives a salt, the structure may show the parent alone.
Metric name: Fibrin % cell toxicity (%)
Field: numeric (%). Do not append units.

stdin: Give a short answer stating reported Fibrin % cell toxicity for CC(C)[N+](C)(CCOC(=O)C1c2ccccc2Oc2ccccc21)C(C)C [Propantheline] .
stdout: 1

stdin: Give a short answer stating reported Fibrin % cell toxicity for C[C@@H]1O[C@@H](O[C@@H]2C=C3CC[C@@H]4[C@H](CC[C@]5(C)[C@@H](c6ccc(=O)oc6)CC[C@]45O)[C@@]3(C)CC2)[C@H](O)[C@H](O)[C@H]1O [Proscillaridin] .
stdout: 1

stdin: Give a short answer stating reported Fibrin % cell toxicity for CCCCCCCCCCCCCCOS(=O)(=O)[O-].[Na+] [Sodium Tetradecyl Sulfate] .
stdout: 1

stdin: Give a short answer stating reported Fibrin % cell toxicity for CCOc1cc(CC(=O)N[C@@H](CC(C)C)c2ccccc2N2CCCCC2)ccc1C(=O)O [Repaglinide] .
stdout: 1

stdin: Give a short answer stating reported Fibrin % cell toxicity for COCCCOc1ccnc(C[S+]([O-])c2nc3ccccc3[nH]2)c1C (stereo not shown) [Rabeprazole] .
stdout: 0

stdin: Give a short answer stating reported Fibrin % cell toxicity for CC(C(=O)O)c1ccc2c(c1)Cc1cccnc1O2 (stereo not shown) [Pranoprofen] .
stdout: 1

stdin: Give a short answer stating reported Fibrin % cell toxicity for N[C@@H](CC(=O)N1CCn2c(nnc2C(F)(F)F)C1)Cc1cc(F)c(F)cc1F [Sitagliptin] .
stdout: 0

stdin: Give a short answer stating reported Fibrin % cell toxicity for NC(=O)CN1CCCC1=O [Piracetam] .
stdout: 0

stdin: Give a short answer stating reported Fibrin % cell toxicity for CCC1(CC)C(=O)C=CNC1=O [Pyrithyldione] .
stdout: 1

stdin: Give a short answer stating reported Fibrin % cell toxicity for CC(=O)OC/C=C(C)/C=C/C=C(C)/C=C/C1=C(C)CCCC1(C)C [Retinyl Acetate] .
stdout: 1

stdin: Give a short answer stating reported Fibrin % cell toxicity for CC[C@H](C)C(=O)O[C@H]1C[C@H](O)C=C2C=C[C@H](C)[C@H](CC[C@@H](O)C[C@@H](O)CC(=O)O)[C@H]21 [Pravastatin Sodium] .
stdout: 1

stdin: Give a short answer stating reported Fibrin % cell toxicity for C#C[C@]1(O)CC[C@H]2[C@@H]3CCc4cc(OC5CCCC5)ccc4[C@H]3CC[C@@]21C [Quinestrol] .
stdout: 0

stdin: Give a short answer stating reported Fibrin % cell toxicity for O=C(O)/C=C\C(=O)O.O=C(O)/C=C\C(=O)O.c1ccc2nc(N3CCNCC3)ccc2c1 [Quipazine Dimaleate, Quipazine Maleate] .
stdout: 1

stdin: Give a short answer stating reported Fibrin % cell toxicity for Cc1oc(=O)oc1CN1CCN(c2cc3c(cc2F)c(=O)c(C(=O)O)c2n3C(C)S2)CC1 (stereo not shown) [Prulifloxacin] .
stdout: 1

stdin: Give a short answer stating reported Fibrin % cell toxicity for NC(=O)C1(N2CCCCC2)CCN(CCCC(=O)c2ccc(F)cc2)CC1 [Pipamperone] .
stdout: 1

stdin: Give a short answer stating reported Fibrin % cell toxicity for CCCOc1ccc(C(=O)OCCN(CC)CC)cc1N [Proparacaine] .
stdout: 1

stdin: Give a short answer stating reported Fibrin % cell toxicity for O=C(O)c1ccccc1C(=O)Nc1ccc(S(=O)(=O)Nc2nccs2)cc1 [Phthalylsulfathiazole] .
stdout: 1

stdin: Give a short answer stating reported Fibrin % cell toxicity for CCN1CCC[C@H]1CNC(=O)c1c(OC)ccc(Br)c1OC [Remoxipride] .
stdout: 1

stdin: Give a short answer stating reported Fibrin % cell toxicity for CCCCOc1ccc(OCCCN2CCOCC2)cc1 [Pramocaine] .
stdout: 0

stdin: Give a short answer stating reported Fibrin % cell toxicity for Nc1nc2c(ncn2CCC(CO)CO)c(=O)[nH]1 [Penciclovir] .
stdout: 1

stdin: Give a short answer stating reported Fibrin % cell toxicity for CS(=O)(=O)c1ccc(C2=C(c3ccccc3)C(=O)OC2)cc1 [Rofecoxib] .
stdout: 0

stdin: Give a short answer stating reported Fibrin % cell toxicity for Cc1ncc(CSSCc2cnc(C)c(O)c2CO)c(CO)c1O [Pyritinol] .
stdout: 1

stdin: Give a short answer stating reported Fibrin % cell toxicity for OCc1ccccn1 [Piconol] .
stdout: 1

stdin: Give a short answer stating reported Fibrin % cell toxicity for NC[C@@H]1O[C@H](O[C@H]2[C@@H](O)[C@H](O[C@@H]3[C@@H](O)[C@H](N)C[C@H](N)[C@H]3O[C@H]3O[C@H](CO)[C@@H](O)[C@H](O)[C@H]3N)O[C@@H]2CO)[C@H](N)[C@@H](O)[C@@H]1O [Paromomycin Sulfate] .
stdout: 1

stdin: Give a short answer stating reported Fibrin % cell toxicity for CN1C(C(=O)Nc2ccccn2)=C(O)c2ccccc2S1(=O)=O [Piroxicam] .
stdout: 1

stdin: Give a short answer stating reported Fibrin % cell toxicity for c1ccc2c(c1)Nc1ccccc1S2 [Phenothiazine] .
stdout: 0

stdin: Give a short answer stating reported Fibrin % cell toxicity for CNC(=O)Oc1ccccc1OC(C)C [Propoxur] .
stdout: 1

stdin: Give a short answer stating reported Fibrin % cell toxicity for O=C(/C=C/C=C/c1ccc2c(c1)OCO2)N1CCCCC1 [Piperine] .
stdout: 1

stdin: Give a short answer stating reported Fibrin % cell toxicity for CCN(CC)CCOC(=O)c1ccc(N)cc1 [Procaine, Novocain] .
stdout: 0

stdin: Give a short answer stating reported Fibrin % cell toxicity for C[C@@H]1O[C@@H](OC[C@H]2O[C@@H](Oc3c(-c4ccc(O)c(O)c4)oc4cc(O)cc(O)c4c3=O)[C@H](O)[C@@H](O)[C@@H]2O)[C@H](O)[C@H](O)[C@H]1O [Rutin] .
stdout: 1

stdin: Give a short answer stating reported Fibrin % cell toxicity for OC(CCN1CCCCC1)(c1ccccc1)c1ccccc1 [Pridinol] .
stdout: 1

stdin: Give a short answer stating reported Fibrin % cell toxicity for CCCN(CCC)C(=O)C(CCC(=O)O)NC(=O)c1ccccc1 (stereo not shown) [Proglumide] .
stdout: 1

stdin: Give a short answer stating reported Fibrin % cell toxicity for CCC(NC(C)C)C(O)c1ccc(O)c2[nH]c(=O)ccc12 (stereo not shown) [Procaterol] .
stdout: 1

stdin: Give a short answer stating reported Fibrin % cell toxicity for CC1(C)S[C@@H]2[C@H](NC(=O)COc3ccccc3)C(=O)N2[C@H]1C(=O)O [Phenoxymethylpenicillin] .
stdout: 1

Values were extracted from patent US20210330611A1.
